Test: NCI Yeast Anticancer Drug Screen. Data for the bub3 strain (AID 167)
Settings: S. cerevisiae bub3 mutant strain, at 50.0 µM (retest, dose inferred, filed as 5.0), stronger effect = higher value
The panel holds about 79,000 compounds, 15% with a hit somewhere; the sample as a whole holds those more often.
I'd appreciate it if you could supply growth inhibition values for the items below.
# value in %; strip the unit string

Supply recorded growth inhibition for CC(CN(C)C)C(/C=C/c1ccc(F)cc1)=N\Nc1ccccc1 (stereo unspecified) here.
39

Supply recorded growth inhibition for Cc1cc(N)c2cc(NC(=O)Nc3ccc4nc(C)cc(N)c4c3)ccc2n1 here.
99

Supply recorded growth inhibition for CCS(=O)(=O)OC(C)CCl (stereo unspecified) here.
-3

Supply recorded growth inhibition for CC(=O)Oc1ccccc1N(C(C)=O)S(=O)(=O)c1ccc(C)cc1 here.
99

Supply recorded growth inhibition for CCOC(=O)c1ccc(N(CCC(O)CN=[N+]=[N-])S(=O)(=O)c2ccc(C)cc2)cc1 (stereo unspecified) here.
49

Supply recorded growth inhibition for Cc1ccc(Cc2n[nH]c(=O)[nH]2)cc1 here.
22

Supply recorded growth inhibition for CCCCCCCCC/C=C1\CCC(CN(C)C)C1=O (stereo unspecified) here.
97

Supply recorded growth inhibition for Cc1cc(NS(=O)(=O)c2ccc(N)cc2)no1.[Ag] here.
99

Supply recorded growth inhibition for COc1ccc(-c2csc(C)n2)cc1OC here.
9

Supply recorded growth inhibition for C[n+]1c(-c2ccc(/C=N/Nc3n[nH]c(=S)n3/N=C/c3ccc(-c4cn5ccsc5[n+]4C)cc3)cc2)cn2ccsc21 here.
98

Supply recorded growth inhibition for Cc1cc(SCC(=O)c2ccccc2)cc(C)[o+]1 here.
86

Supply recorded growth inhibition for Cc1cc(-c2ccc(N=Nc3cc(S(=O)(=O)O)c4ccccc4c3N)c(C)c2)ccc1N=Nc1cc(S(=O)(=O)O)c2ccccc2c1N here.
73

Supply recorded growth inhibition for N#CSCN1C(=O)C2CC=CCC2C1=O (stereo unspecified) here.
95

Supply recorded growth inhibition for O=c1cc(CSc2ccc(Cl)cc2)occ1O here.
4

Supply recorded growth inhibition for CCOc1ccc(Nc2nc(C)c(C(=O)/C=C/c3ccc(Cl)cc3Cl)s2)cc1 here.
6

Supply recorded growth inhibition for CSC(SC)=C1C(=O)NC(Cc2ccccc2)C1=O (stereo unspecified) here.
34

Supply recorded growth inhibition for CSC(=S)N/N=C(\C)c1ccc[nH]1 here.
97

Supply recorded growth inhibition for C1CCC(CCCCc2nn[nH]n2)CC1 here.
97

Supply recorded growth inhibition for Cc1nc2c(nc1C)C(=O)C1=C(C2=O)C2C=CC1CC2 here.
94

Supply recorded growth inhibition for O=C(O)Cc1cccc2cc3c(ccc4ccccc43)cc12 here.
42

Supply recorded growth inhibition for COc1cc(F)ccn1 here.
-4

Supply recorded growth inhibition for O=C(O)c1cc2ccc(Cl)cc2c2c1C(=O)c1cc(Cl)ccc1-2 here.
33

Supply recorded growth inhibition for NNc1ncc2c(n1)-c1ccccc1OC2 here.
40

Supply recorded growth inhibition for O=[N+]([O-])c1cccn2nc(C3OC(CO)C(O)C3O)nc12 (stereo unspecified) here.
-1

Supply recorded growth inhibition for O=C(c1ccccc1)c1ccc2c(c1Cl)C(=O)c1ccccc1C2=O here.
-11

Supply recorded growth inhibition for CC1=CC(C)C(C)N(CCNC(=O)Nc2ccccc2)c2ccccc21 (stereo unspecified) here.
75

Supply recorded growth inhibition for CCOC1=Cc2c(oc3c(C(C)(C)C)cc(OCC)cc23)OC(C(C)(C)C)=C1 here.
98

Supply recorded growth inhibition for C[N+](C)([O-])CCC=C1c2ccccc2CCc2ccccc21 here.
33

Supply recorded growth inhibition for O=C(O)CCCCCCCCCCOc1ccc(Cl)cc1Cl here.
2

Supply recorded growth inhibition for CN=C(N)N/N=C(\C)c1ccc2c(ccc3ccccc32)c1 here.
99

Supply recorded growth inhibition for CCN(CC)CCOc1ccc(/C(C#N)=C/c2ccc3ccccc3c2)cc1 here.
99

Supply recorded growth inhibition for S=C(S)NCCN1CCNC1=S here.
95

Supply recorded growth inhibition for CCOC(=O)/C(=C\c1ccc(C)cc1)C(C)=O here.
98

Supply recorded growth inhibition for CCOC(=O)Nc1ccc(SCC2COC(Cn3ccnc3)(c3ccc(Cl)cc3Cl)O2)cc1 (stereo unspecified) here.
93

Supply recorded growth inhibition for C/C(=N\NC(=S)N(C)C)c1cccnn1 here.
99

Supply recorded growth inhibition for NC(=O)C1(Br)C=[N+](Cc2ccccc2)CCC1 (stereo unspecified) here.
-6

Supply recorded growth inhibition for CCC(C1SC(=S)NC1=O)C1SC(=S)NC1=O (stereo unspecified) here.
6

Supply recorded growth inhibition for CCCCC1(CC)COC(c2ccccc2OC)OC1 (stereo unspecified) here.
92

Supply recorded growth inhibition for C[n+]1c(-c2ccc(/C=N\NC(=O)c3ccc(C(=O)N/N=C/c4ccc(-c5cn6ccsc6[n+]5C)cc4)cc3)cc2)cn2ccsc21 here.
98

Supply recorded growth inhibition for Cc1cc2nc3c(C)c4ccccc4c(C)n3c2cc1C here.
94

Supply recorded growth inhibition for OC(C/C(=N\N=C(/CC(O)(C(F)(F)F)C(F)(F)F)c1ccccc1)c1ccccc1)(C(F)(F)F)C(F)(F)F here.
-5

---

I'd appreciate it if you could supply growth inhibition values for the items below.
Test: NCI Yeast Anticancer Drug Screen. Data for the bub3 strain (AID 167)
Conditions: S. cerevisiae bub3 mutant strain, at 50.0 µM, stronger effect = higher value
The panel holds about 79,000 compounds, 15% with a hit somewhere; the sample as a whole holds those more often.
# value in %; strip the unit string

Supply recorded growth inhibition for CC(=O)N(C1=C(Cl)C(=O)c2ccccc2C1=O)c1ccc(C)cc1 here.
96.5

Supply recorded growth inhibition for Cc1cccc2nc3nc(Cl)c(Cl)nc3n12 here.
51.4

Supply recorded growth inhibition for CC1CCCC(CCN(C)CCC2CCCCC2)CC1 (stereo not drawn) here.
99

---

I'd appreciate it if you could supply growth inhibition values for the items below.
Test: NCI Yeast Anticancer Drug Screen. Data for the bub3 strain (AID 167)
Conditions: S. cerevisiae bub3 mutant strain, at 50.0 µM (retest, dose inferred, filed as 5.0), stronger effect = higher value
Compounds without any hit were thinned out: in the full panel of roughly 79,000, 15% have a hit.
# value in %; strip the unit string

Supply recorded growth inhibition for CC(C)(C)CC(C)(C)NCc1cc(Cl)cc(Cc2cc(Cl)ccc2O)c1O here.
98

Supply recorded growth inhibition for Cc1c(Cl)cccc1NC(=O)/C(Cl)=C(\Cl)C(=O)O here.
18

Supply recorded growth inhibition for O=C1OC(=O)c2cc([N+](=O)[O-])cc3cccc1c23 here.
99

Supply recorded growth inhibition for CCCCc1c2c(nc3c1CC/C(=C\c1ccc([N+](=O)[O-])cc1)C3=O)CCCC2 here.
91

Supply recorded growth inhibition for O=[N+]([O-])/C(Br)=C\c1ccc([N+](=O)[O-])cc1 here.
99

Supply recorded growth inhibition for O=C(OCc1ccccc1)N1N=NC2C1C1CC(OCc3ccccc3)(OCc3ccccc3)C2O1 (stereo not drawn) here.
6

Supply recorded growth inhibition for O=c1c(SSc2coc3ccccc3c2=O)coc2ccccc12 here.
94

Supply recorded growth inhibition for Cc1ccc(C(OS(=O)(=O)c2ccc(C)cc2)C(F)(F)F)cc1 (stereo not drawn) here.
37

Supply recorded growth inhibition for Nc1ccc(N)c2c1C(=O)c1ccccc1C2=O here.
24

Supply recorded growth inhibition for C=CCN1/C(=C\C=C\c2ccc3cc(C)ccc3[n+]2CC=C)C=Cc2cc(C)ccc21 here.
98

Supply recorded growth inhibition for Cc1ccc(NCCN(C)C)c2c(=O)c3ccc(O)cc3sc12 here.
84

Supply recorded growth inhibition for CCOC(=O)c1cn(CC)c2cc(-n3cccc3)ccc2c1=O here.
27

Supply recorded growth inhibition for COc1cccc2c1C(=O)c1c(O)c(CCl)cc(O)c1C2=O here.
49

---

Assay: NCI Yeast Anticancer Drug Screen. Data for the mec2-1 strain (AID 157)
Conditions: S. cerevisiae mec2-1 strain, at 50.0 µM (retest, dose inferred, filed as 5.0)
Experimental: Growth inhibition of yeast strains with defined genetic alterations is measured as a screen for potential anti-cancer activity. Selected strains with alterations in DNA damage repair or cell cycle control were exposed to compounds and growth inhibition was measured relative to vehicle treated controls. The strain used in this assay is mec2-1
The panel holds about 79,000 compounds, 15% with a hit somewhere; the sample as a whole holds those more often. Activity calls are given as the source filed them. Cut-off read from the data, not from the text of the source: active = growth inhibition above about 70%; inactive = the rest.
Would you mind answering with one of these outcomes? active, inactive

Hello, I am checking results. What call was entered for O=C(NNc1ccccc1)C(O)C(O)C(O)C(O)C(O)C(O)C(O)CO (centres undefined) ?
active

Hello, I am checking results. What call was entered for O=[N+]([O-])c1ccc(NS(=O)(=O)c2ccc(Cl)c(Cl)c2Cl)c([N+](=O)[O-])c1 ?
inactive

Hello, I am checking results. What call was entered for COc1ccc(C(=O)C2C(=O)C(=O)OC2C2OC(=O)C(=O)C2C(=O)c2ccc(OC)cc2)cc1 (centres undefined) ?
inactive

Hello, I am checking results. What call was entered for O=C(O)CCC(=O)c1ccc2c(c1)CCCC2 ?
inactive

Hello, I am checking results. What call was entered for C[C@]12C[C@@H](c3ccccc3)Nc3ccccc3N1C(c1ccccc1)=NO2 ?
active

Hello, I am checking results. What call was entered for CCN(CC)CCOc1ccc(/C(C#N)=C/c2ccc3ccccc3c2)cc1 ?
active

Hello, I am checking results. What call was entered for CC(C)CCOC(=O)Nc1cccc(Cl)c1 ?
inactive

Hello, I am checking results. What call was entered for CCCCCCCCCCCCCCCCSC(=NC)NC ?
active

Hello, I am checking results. What call was entered for CCN(CC)CCOC(=O)c1ccc(N=Nc2ccc(O)c3ccccc23)cc1 ?
active

Hello, I am checking results. What call was entered for COc1cccc2c1C(=O)c1c(O)c3c(c(O)c1C2=O)C[C@@](O)(C(C)=O)C[C@@H]3OC1CC([N+]([O-])(Cc2ccccc2)Cc2ccccc2)C(O)C(C)O1 (some centres undefined) ?
active

Hello, I am checking results. What call was entered for CCS(=O)(=O)OC(C)CCl (centres undefined) ?
inactive

Hello, I am checking results. What call was entered for CCCC(C1=C(O)CC(C)CC1=O)C1=C(O)CC(C)CC1=O (centres undefined) ?
inactive

Hello, I am checking results. What call was entered for c1ccc(N=C2SC3=NCCN3C2=Nc2ccccc2)cc1 ?
active

Hello, I am checking results. What call was entered for O=C(CS)Nc1ccccc1 ?
active

Hello, I am checking results. What call was entered for N#Cc1ccc(Oc2nc3ccccc3nc2-c2ccccc2)cc1 ?
inactive

Hello, I am checking results. What call was entered for CCCCCCCCCCCCCCCCOC(=O)C[n+]1ccc(C(N)=O)cc1 ?
active

Hello, I am checking results. What call was entered for O=C(C(/C=N\C(=S)Nc1ccccc1Cl)=C(/O)c1ccccc1)c1ccccc1 ?
active

Hello, I am checking results. What call was entered for COc1ccc(C2=NN(c3ccccc3)C[N+](c3ccc(C)cc3)=N2)cc1 ?
active

Hello, I am checking results. What call was entered for CC(O)CCc1nc2ccccc2[nH]1 (centres undefined) ?
inactive

Hello, I am checking results. What call was entered for COc1ccc2c(c1)C(=O)/C(=C/c1ccc([N+](=O)[O-])o1)CO2 ?
active

Hello, I am checking results. What call was entered for S=c1[nH]nc(Nc2ccccc2Cl)s1 ?
inactive

Hello, I am checking results. What call was entered for CCCCCCCCCCCCCC[N+]1(CC)CCCCC1 ?
active

Hello, I am checking results. What call was entered for O=C1OC(c2ccccc2)(c2ccccc2)CC1CN1CCOCC1 (centres undefined) ?
active

Hello, I am checking results. What call was entered for O=C(OCc1ccccc1CN1CCOCC1)c1ccc(Br)cc1 ?
inactive

Hello, I am checking results. What call was entered for C=CCOCCC(=O)OCC=C ?
inactive

Hello, I am checking results. What call was entered for Cc1cc(N/N=C(\c2ccccc2)c2ccccn2)nc2ccccc12 ?
active

Hello, I am checking results. What call was entered for CN(C)c1ccc(/C=C/c2ccnc3ccccc23)c(O)c1 ?
inactive

Hello, I am checking results. What call was entered for Cc1cccc(NC(=S)N/N=C(/c2ccccc2)c2ccccn2)c1 ?
active

Hello, I am checking results. What call was entered for CCCCCN(C(=O)CCl)c1ccccc1 ?
inactive

Hello, I am checking results. What call was entered for N#[N+]c1c([O-])ccc2nc3ccccc3nc12 ?
inactive

Hello, I am checking results. What call was entered for O=C(O)c1cc2ccc(Cl)cc2c2c1C(=O)c1cc(Cl)ccc1-2 ?
inactive

Hello, I am checking results. What call was entered for CCC(c1ccc(OC)cc1)C(CC)c1ccc(O)c(CN(C)C)c1 (centres undefined) ?
inactive

Hello, I am checking results. What call was entered for O=C(CBr)N1c2ccccc2S(=O)(=O)c2ccc3ccccc3c21 ?
active

Hello, I am checking results. What call was entered for COc1ccc2c(Cc3ccc(O)cc3)cncc2c1O ?
inactive

Hello, I am checking results. What call was entered for CC(=O)/C(=C\c1c(Cl)cccc1Cl)C(=O)CCN(C)C ?
active

Hello, I am checking results. What call was entered for CC1CCN(CCOC(=O)C(c2ccccc2)C2C=CCCC2)C1C (centres undefined) ?
active

Hello, I am checking results. What call was entered for c1ccc(CCCCc2ccncc2)cc1 ?
inactive

Hello, I am checking results. What call was entered for Cc1ccc2c(c1)nc1n2C(N)=Nc2ccccc2S1 ?
inactive

Hello, I am checking results. What call was entered for Cc1c2[nH]c3ccc(Br)cc3c2c(C)c2[nH]ccc(=O)c12 ?
inactive

Hello, I am checking results. What call was entered for CCCCC(=S)N1CCN(c2ccccc2)CC1 ?
inactive

Hello, I am checking results. What call was entered for Cc1ccc(C(C)(C)c2ccc(C(=O)O)cc2)cc1 ?
inactive

Hello, I am checking results. What call was entered for CCN(CC)C(=O)C(C)OC(C)=O (centres undefined) ?
inactive

Hello, I am checking results. What call was entered for CCCCC1(C(O)CC)Sc2ccccc2N1C (centres undefined) ?
active

Hello, I am checking results. What call was entered for CN(C)CC1CCc2ccc3ccccc3c2C1=O (centres undefined) ?
inactive
